Provenance of the data: paper PMC4121618

Target desc: human MOP receptors (Homo sapiens, UniProt P35372)
Sequence (P35372 whole entry): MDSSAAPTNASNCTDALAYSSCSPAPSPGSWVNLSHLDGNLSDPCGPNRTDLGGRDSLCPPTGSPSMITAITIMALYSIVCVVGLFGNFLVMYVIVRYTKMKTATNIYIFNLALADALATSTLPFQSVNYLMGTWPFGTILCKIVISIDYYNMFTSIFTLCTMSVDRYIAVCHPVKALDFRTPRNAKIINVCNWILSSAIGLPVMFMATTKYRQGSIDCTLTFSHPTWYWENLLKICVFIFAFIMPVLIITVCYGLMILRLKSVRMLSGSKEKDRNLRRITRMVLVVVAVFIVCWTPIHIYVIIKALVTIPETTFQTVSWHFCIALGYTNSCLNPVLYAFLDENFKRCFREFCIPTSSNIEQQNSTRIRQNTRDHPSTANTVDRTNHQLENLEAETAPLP
Protocol details: [35S]GTPγS functional assay in CHOhMOP cell membranes
Type: biochemical
Set-up: expressed in transfected cells; host or cells: CHO cells
pEC50: −log10 of the molar value.

{"columns": ["Molecule", "pEC50"],
 "data": [
  ["COc1ccc2c(c1OC)C13C=C(C(N)=O)CCC1(OC)C(C2)N(C)CC3 (stereo not shown)", 7.59],
  ["COc1ccc2c(c1OC)C13C=C(C#N)C=CC1(OC)C(C2)N(C)CC3 (stereo not shown)", 8.79],
  ["COc1ccc2c(c1OC)C13C=C(C#N)CCC1(O)C(C2)N(C)CC3 (stereo not shown)", 7.37],
  ["COc1ccc2c(c1O)C13C=C(C#N)CCC1(O)C(C2)N(C)CC3 (stereo not shown)", 6.56],
  ["COc1ccc2c(c1O)C13C=C(C#N)CCC1(OC)C(C2)N(C)CC3 (stereo not shown)", 7.58],
  ["COc1ccc2c3c1O[C@H]1C(=O)CC[C@@]4(OC)[C@@H](C2)N(C)CC[C@]314 [14-OMC, 14-O-methyloxycodone, reference compound]", 6.49],
  ["COc1ccc2c3c1OC1C(C#N)=CCC4(OC)C(C2)N(C)CCC314 (stereo not shown)", 7.60]
]}
